biological target: Histone deacetylase 2 (Homo sapiens); test: Inhibition of human recombinant HDAC2
Value type: IC50 (nM)

Q: # lookup: IC50 of O=C(/C=C/c1cccc(-c2nc3ccccc3n2-c2ccccc2)c1)NO
Result: 63

Q: Returns the measured IC50 for the input molecule. Input: O=C(/C=C/c1cccc(-c2nc3ccccc3[nH]2)c1)NO
Result: 100

Q: Return reported IC50; argument: Cc1nc(-c2cccc(/C=C/C(=O)NO)c2)n([C@@H]2CCCN(C)C2)c1-c1ccccc1
Result: 10

I. Cc1c(Cc2ccccc2)nc(-c2cccc(/C=C/C(=O)NO)c2)n1CCN1CCOCC1
II. O=C(/C=C/c1cccc(-c2nc3ccccc3n2Cc2ccccc2)c1)NO
III. O=C(/C=C/c1cccc(-c2nc3ccccc3n2CC2CCNCC2)c1)NO
IV. Cc1nc(-c2cccc(/C=C/C(=O)NO)c2)n(CCN2CCOCC2)c1-c1ccccc1
V. Cc1c(-c2ccccc2)nc(-c2cccc(/C=C/C(=O)NO)c2)n1[C@@H]1CCCN(C(C)C)C1
Q: Rank order required: IC50, descending. List the labels in the requested order.
Result: III, II, IV, I, V

----------
target: UniProt Q92769; assay: Inhibition of human recombinant HDAC2
pIC50: −log10 of the molar value.
Value type: pIC50

Recorded pIC50, per entry:
Q: Query for UniProt Q92769: what pIC50 does the record show for Cc1c(Cc2ccccc2)nc(-c2cccc(/C=C/C(=O)NO)c2)n1[C@@H]1CCCN(C)C1 ?
Result: 8.20

Q: Recorded pIC50 for Cc1nc(-c2cccc(/C=C/C(=O)NO)c2)n([C@@H]2CCCN(C(C)C)C2)c1-c1ccccc1 with UniProt Q92769, please?
Result: 8.20

P. O=C(/C=C/c1cccc(-c2nc3ccccc3n2CCc2ccccc2)c1)NO
Q. O=C(/C=C/c1cccc(-c2nc3ccccc3n2CCN2CCOCC2)c1)NO
R. Cc1c(-c2ccccc2)nc(-c2cccc(/C=C/C(=O)NO)c2)n1[C@@H]1CCCN(C)C1
Q: hey, can you rank those compounds up there by pIC50? biggest number first please Write the labels out in the order the request specifies.
Result: R, P, Q
(R: 8.30, P: 8.10, Q: 7.30)

----------
molecular target: Histone deacetylase 2 (Homo sapiens) (UniProt Q92769); assay: Inhibition of human recombinant HDAC2
Sequence (Q92769 whole entry, looked up): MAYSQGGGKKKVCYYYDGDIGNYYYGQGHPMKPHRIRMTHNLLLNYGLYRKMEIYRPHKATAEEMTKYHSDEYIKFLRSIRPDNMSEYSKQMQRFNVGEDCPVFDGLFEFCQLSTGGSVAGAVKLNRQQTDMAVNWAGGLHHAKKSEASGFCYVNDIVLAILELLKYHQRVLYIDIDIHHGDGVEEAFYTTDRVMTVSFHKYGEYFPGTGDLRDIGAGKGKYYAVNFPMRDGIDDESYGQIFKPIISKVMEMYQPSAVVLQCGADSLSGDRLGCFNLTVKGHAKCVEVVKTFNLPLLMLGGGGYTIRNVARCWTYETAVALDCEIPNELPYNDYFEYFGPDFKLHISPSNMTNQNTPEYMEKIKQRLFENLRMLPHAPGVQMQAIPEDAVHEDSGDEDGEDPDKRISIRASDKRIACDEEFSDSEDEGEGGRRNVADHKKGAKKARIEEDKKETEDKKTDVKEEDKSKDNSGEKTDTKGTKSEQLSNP
Value type: IC50 (nM)

Known results for molecules:
Q: # lookup: IC50 of Cc1nc(-c2cccc(/C=C/C(=O)NO)c2)n(CCc2ccccc2)c1-c1ccccc1
Result: 7.9

Q: Entry CN(C)CCn1c(-c2cccc(/C=C/C(=O)NO)c2)nc2ccccc21 : reported IC50 = ?
Result: 63

Q: GET /values?readout=IC50&item= Cc1nc(C)n(CCc2ccccc2)c1-c1cccc(/C=C/C(=O)NO)c1
Result: 79

Q: Which measured IC50 value corresponds to Cc1c(-c2ccccc2)nc(-c2cccc(/C=C/C(=O)NO)c2)n1CCN1CCOCC1 ?
Result: 10

Q: Look up IC50: CCN1CCCC(n2c(-c3cccc(/C=C/C(=O)NO)c3)nc3ccccc32)C1 (racemic)
Result: 20

I. Cc1nc(Cc2ccccc2)n(CCc2ccccc2)c1-c1cccc(/C=C/C(=O)NO)c1
II. C[C@H](c1ccccc1)n1c(-c2cccc(/C=C/C(=O)NO)c2)nc2ccccc21
Q: Pick one: I or II . Which has the bigger IC50 number? Your choice should be expressed through its label.
Result: I
